FYI, the data here is from ChEMBL document CHEMBL1759854.

Experiment Summary: Oral bioavailability in Beagle dog at 5 umol/kg, po
Format: ADME, organism-based, Canis lupus familiaris
Reported Conditions: in vivo
What bioavailability was measured for each of the following?
Write the numeric value and append its unit.

Input Smiles	Result
Cc1ccc(CO)cc1N(C)c1ccnc(Nc2cc(N3CCOCC3)nc(N3CCOCC3)c2)n1	22%

Ask: Give recorded bioavailability. `Cc1ccc(CO)cc1N(C)c1ccnc(Nc2cc(N3CCOCC3)cc(N3CCOCC3)c2)n1`
Result: 58%

====

Experiment Summary: physchem
Reported Conditions: octanol/water
Readout Name: logD
One number for each entry.

Input Smiles	logD
Cc1ccc(CO)cc1N(c1ccnc(Nc2cc(N3CCOCC3)cc(S(C)(=O)=O)c2)n1)C(C)C	3.4
Cc1ccc(CO)cc1N(C)c1ccnc(Nc2cc(CN3CCOCC3)cc(N3CCOCC3)c2)n1	3
COCCOc1cc(Nc2nccc(N(C)c3cc(CO)ccc3C)n2)cc(N2CCOCC2)c1	3.3

Working through the 4 compounds below one at a time, give logD for each.
1. COc1cc(Nc2nccc(N(C)c3cc(CO)ccc3C)n2)cc(N2CCOCC2)c1
2. Cc1ccc(CO)cc1N(C)c1ccnc(Nc2cc(N3CCOCC3)nc(N3CCOCC3)c2)n1
3. Cc1ccc(CO)cc1N(C)c1ccnc(Nc2cc(N3CCOCC3)cc(N3CCN(O)CC3)c2)n1
4. Cc1ccc(CO)cc1N(C)c1ccnc(Nc2cc(N3CCOCC3)nc(N3CCOCC3)n2)n1

Result:
1. 3.9
2. 3.4
3. 2.8
4. 3.9
